Known polymerase ribozyme fitness (log ratio) of a selection of variants
B1: TPR t1 (parent)
chain: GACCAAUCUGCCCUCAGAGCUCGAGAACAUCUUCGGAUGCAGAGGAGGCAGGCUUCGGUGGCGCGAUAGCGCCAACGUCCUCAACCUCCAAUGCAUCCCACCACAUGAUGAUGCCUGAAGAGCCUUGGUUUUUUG

# Variants of: B1
# experimental details: polymerase ribozyme fitness, log enrichment relative to wild type (log ratio); higher = more active; in vitro selection for triplet polymerase activity
The answer should be a number; do not append a unit.

Sample answers from the record:
A5U G117C; -2.92
U9C G71U U78G U132A; -0.414
C28G C40U G57U G63C; -4.66
A2G C97U G117A A119G; -0.0934
A6G G19A A43U C123A G128A; -5.55
U55C C70U C85A; -2.03

Param item = U14G G44C C80U ; retrieve measured polymerase ribozyme fitness (log ratio).
-3.74

Also U7C C11G A100C G120A , if possible.
1.21

Also C53A G61C G110A A119U U133A , if possible.
-4.96

Also A100C G117A , if possible.
-2.55

Also C53U C85U G127C , if possible.
-2.36

Also C4A C8A C13U G63U A84C , if possible.
-2.38

Also `C97A` , if possible.
-4.67

Also C73A G120U A121C , if possible.
0.179

Also C28A G61U G120A , if possible.
-3.5

Also U7A G60U , if possible.
0.564

Also A41G G61U C94U , if possible.
-0.449

Also U7C U14G G48U C70G , if possible.
-5.7

Also A16G A75U C123U , if possible.
-0.477

Also A5U A29G A46G C82G G120A , if possible.
-1.34

Also G61A A100U , if possible.
-0.262

Also C22G G93U , if possible.
-3.03

Origin of values: the RNAGym collection of RNA variant scans (doi:10.1073/pnas.2313332121)
